measurement protocol: Clearance in rat plasma at 1 mg/kg, iv and 2 mg/kg, po
Format: ADME, organism-based

record smiles: Nc1ncnc2c1C(=O)N(c1ccc(-c3ccccc3F)cc1)CCO2
clearance: 7.3 mL/min/kg

----------
measurement protocol: in vitro
protocol conditions: human, Caco-2
Decision: Papp A→B compared against 20 ×10⁻⁶ cm/s; not below it gives YES, below it gives NO.

record smiles: CN(Cc1ccc(-c2ccc(N3CCOc4ncnc(N)c4C3=O)cc2)c(Cl)c1)C(=O)CN
assigned category: NO
--
record smiles: CN(Cc1ccc(-c2ccc(N3CCOc4ncnc(N)c4C3=O)cc2)c(Cl)c1)C(=O)CCCN
assigned category: NO
--
record smiles: Nc1ncnc2c1C(=O)N(c1ccc(-c3ccc(CN4CC[C@H](O)C4=O)cc3Cl)cc1)CCO2
assigned category: NO
--
record smiles: Cc1ccc(-c2ccc(N3CCOc4ncnc(N)c4C3=O)cc2)c(Cl)c1
assigned category: NO
--
record smiles: Nc1ncnc2c1C(=O)N(c1ccc(-c3ccc(CO)cc3Cl)cc1)CCO2
assigned category: NO
--
record smiles: N#Cc1cccc(-c2ccc(N3CCOc4ncnc(N)c4C3=O)cc2)c1Cl
assigned category: YES
--
record smiles: CC(=O)NCc1ccc(-c2ccc(N3CCOc4ncnc(N)c4C3=O)cc2)c(Cl)c1
assigned category: NO
--
record smiles: CN(Cc1ccc(-c2ccc(N3CCOc4ncnc(N)c4C3=O)cc2)c(Cl)c1)C(=O)CCN
assigned category: NO
--
record smiles: N#Cc1ccc(-c2ccc(N3CCOc4ncnc(N)c4C3=O)cc2)c(Cl)c1
assigned category: YES
--
record smiles: Nc1ncnc2c1C(=O)N(c1ccc(-c3ccccc3Cl)cc1)CCO2
assigned category: YES
--
record smiles: Nc1ncnc2c1C(=O)N(c1ccc(-c3cc(Cl)ccc3Cl)cc1)CCO2
assigned category: NO
